experiment: In vivo distribution after coinjection of unlabeled carboxamide (receptor-mediated binding); parameters: species or system rats; conditions: rat, blood, iv, 0.4 mg/kg, blood, 30 min post-i.v. coinjection of 10 μCi with 0.4 mg/kg (R)-indole-2-carboxamide; 95% confidence intervals (Table 5); read-out: % DOSE/GRAM, Blood, coinjection
assayReadout: tissue uptake at 0.5 h (%ID/g)
Give a bare numeral; the unit %ID/g is implied.

Return reported tissue uptake at 0.5 h. Input molecule: CN1C(=O)[C@@H](NC(=O)c2ccc([123I])cc2)N=C(c2ccccc2)c2ccccc21
0.236

---

experiment: In vivo distribution of tritiated radioligand in pancreas; details: in vivo, iv, 10 uCi
assayReadout: tissue uptake
Give the number first and the unit second.

Input CN1C(=O)C(NC(=O)c2cc3ccccc3[nH]2)N=C(c2ccccc2)c2ccccc21 (stereo in doubt) , output reported tissue uptake.
2.1 %ID/g

---

Assay: In vivo distribution after coinjection of unlabeled carboxamide (receptor-mediated binding)
Parameters: species or system rats
Settings: rat, iv; sigmoidal colon, 30 min post-i.v. coinjection of 10 μCi with 0.4 mg/kg (R)-indole-2-carboxamide; 95% confidence intervals (Table 5); read-out: % DOSE/GRAM, Sigmoidal Colon, coinjection
Method: Animals were euthanized at various times (15 min to 2 hr), and organs of interest removed for assay. […] […] Liquid scintillation cocktail was added and the samples were dark adapted for 16 hours, then counted in a liquid scintillation counter with automatic quench correction. Results were the average of at least five animals and were expressed as % dose/g (wet weight).
assayReadout: tissue uptake at 0.5 h (%ID/g)
Express your answer in %ID/g, writing the number without its unit.

Fill in reported tissue uptake at 0.5 h for this entry: CN1C(=O)[C@@H](NC(=O)c2ccc([123I])cc2)N=C(c2ccccc2)c2ccccc21
0.6

---

Assay: In vivo distribution after coinjection of unlabeled carboxamide (receptor-mediated binding)
Set-up: species or system rats
Settings: rat, iv; descending colon, 30 min post-i.v. coinjection of 10 μCi with 0.4 mg/kg (R)-indole-2-carboxamide; 95% confidence intervals (Table 5); read-out: % DOSE/GRAM, Descending Colon, coinjection
Experimental: Animals were euthanized at various times (15 min to 2 hr), and organs of interest removed for assay. […] […] Liquid scintillation cocktail was added and the samples were dark adapted for 16 hours, then counted in a liquid scintillation counter with automatic quench correction. Results were the average of at least five animals and were expressed as % dose/g (wet weight).
assayReadout: tissue uptake at 0.5 h (%ID/g)
Give the value, in units of %ID/g, as a plain number.

Note down tissue uptake at 0.5 h recorded for CN1C(=O)[C@@H](NC(=O)c2ccc([123I])cc2)N=C(c2ccccc2)c2ccccc21
0.434

---

test: In vivo distribution after coinjection of unlabeled carboxamide (receptor-mediated binding); parameters: species or system rats; details: rat, iv; P. Sphincter (pyloric), 30 min post-i.v. coinjection of 10 μCi with 0.4 mg/kg (R)-indole-2-carboxamide; 95% confidence intervals (Table 5); read-out: % DOSE/GRAM, P. Sphincter, coinjection
assayReadout: tissue uptake at 0.5 h (%ID/g)
# number only, unit %ID/g dropped from output

Identify the reported tissue uptake at 0.5 h for the following entry. CN1C(=O)[C@@H](NC(=O)c2ccc([123I])cc2)N=C(c2ccccc2)c2ccccc21
0.705

---

Assay: In vivo distribution necropsy after i.v. injection
Set-up: species or system rats
Settings: rat, descending colon, iv, 10 uCi, descending colon, 30 min post-i.v. injection of 10 μCi; 95% confidence intervals (Table 4); read-out: % DOSE/GRAM, Descending Colon
Procedure: Animals were euthanized at various times (15 min to 2 hr), and organs of interest removed for assay. Biopsy samples were counted in an autogamma counter (50% counting efficiency) for ^123 I labeled radioligand. […] Liquid scintillation cocktail was added and the samples were dark adapted for 16 hours, then counted in a liquid scintillation counter with automatic quench correction. Results were the average of at least five animals and were expressed as % dose/g (wet weight).
assayReadout: tissue uptake at 0.5 h (%ID/g)
Field format: number, assumed %ID/g, no unit text.

Specify tissue uptake at 0.5 h for CN1C(=O)[C@@H](NC(=O)c2ccc([123I])cc2)N=C(c2ccccc2)c2ccccc21 and stop.
0.418
